Origin of the recorded values: patent US20250289893A1

molecular target: Cynomolgus monkey CD1a expressed on HEK-293 cells (Cynomolgus monkey, UniProt A0A2K5VQ68 17-326); assay: flow cytometry, HEK-293 cells, 0.1 µg/ml antibody
Sequence (A0A2K5VQ68 entry or part of it): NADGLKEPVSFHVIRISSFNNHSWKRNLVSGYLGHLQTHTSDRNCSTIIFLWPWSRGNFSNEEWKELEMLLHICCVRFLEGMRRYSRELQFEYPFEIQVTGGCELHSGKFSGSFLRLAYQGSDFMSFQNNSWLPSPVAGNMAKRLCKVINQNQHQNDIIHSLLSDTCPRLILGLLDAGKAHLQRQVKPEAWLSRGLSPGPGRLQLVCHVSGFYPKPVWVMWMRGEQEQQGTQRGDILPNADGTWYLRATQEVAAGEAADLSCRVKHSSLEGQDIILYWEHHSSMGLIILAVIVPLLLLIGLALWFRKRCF
Could you label it MET if measured Fluorescence Intensity Geomean (normalized to background) is 6 fold over background or higher, and NOT MET otherwise?

INPUT: Is it the case that 111 (VR12113) (antibody, V domains shown, also called OX111) VH: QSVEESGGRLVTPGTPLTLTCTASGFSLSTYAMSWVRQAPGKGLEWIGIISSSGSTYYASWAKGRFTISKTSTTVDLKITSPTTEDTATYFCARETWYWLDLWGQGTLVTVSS VL: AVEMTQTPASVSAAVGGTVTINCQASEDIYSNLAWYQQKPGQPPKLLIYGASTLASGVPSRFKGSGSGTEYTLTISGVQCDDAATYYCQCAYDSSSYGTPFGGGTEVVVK has Fluorescence Intensity Geomean (normalized to background) reaching or exceeding 6 fold over background?
OUTPUT: MET

INPUT: Is it the case that 16 (VR11834) (antibody, V domains shown, also called OX16; antibody 16) VH: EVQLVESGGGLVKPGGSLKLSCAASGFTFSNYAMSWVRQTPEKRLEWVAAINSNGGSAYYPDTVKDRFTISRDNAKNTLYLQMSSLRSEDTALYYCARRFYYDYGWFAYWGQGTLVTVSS VL: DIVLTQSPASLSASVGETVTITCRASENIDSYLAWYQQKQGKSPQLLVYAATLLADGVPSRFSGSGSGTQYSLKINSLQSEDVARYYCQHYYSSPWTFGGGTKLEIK has Fluorescence Intensity Geomean (normalized to background) reaching or exceeding 6 fold over background?
OUTPUT: MET

INPUT: Is it the case that 110 (VR12112) (antibody, V domains shown, also called OX110; antibody 110) VH: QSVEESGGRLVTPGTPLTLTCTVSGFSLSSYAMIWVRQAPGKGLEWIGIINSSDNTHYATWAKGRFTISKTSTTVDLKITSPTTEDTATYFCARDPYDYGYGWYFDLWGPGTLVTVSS VL: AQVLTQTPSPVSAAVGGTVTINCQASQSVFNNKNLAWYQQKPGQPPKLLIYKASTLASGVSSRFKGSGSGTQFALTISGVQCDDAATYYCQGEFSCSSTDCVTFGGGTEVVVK has Fluorescence Intensity Geomean (normalized to background) reaching or exceeding 6 fold over background?
OUTPUT: NOT MET

INPUT: Is it the case that 77A (VR11851) (antibody, V domains shown, also called OX77a; antibody 77a) VH: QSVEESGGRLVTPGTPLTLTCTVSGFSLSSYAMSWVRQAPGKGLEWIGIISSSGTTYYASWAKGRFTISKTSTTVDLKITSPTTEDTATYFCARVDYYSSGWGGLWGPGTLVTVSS VL: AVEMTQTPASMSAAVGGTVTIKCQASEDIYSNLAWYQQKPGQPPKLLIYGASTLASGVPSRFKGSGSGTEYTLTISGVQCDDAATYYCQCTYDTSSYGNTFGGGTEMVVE has Fluorescence Intensity Geomean (normalized to background) reaching or exceeding 6 fold over background?
OUTPUT: NOT MET

INPUT: Is it the case that 116 (VR12117) (antibody, V domains shown, also called OX116) VH: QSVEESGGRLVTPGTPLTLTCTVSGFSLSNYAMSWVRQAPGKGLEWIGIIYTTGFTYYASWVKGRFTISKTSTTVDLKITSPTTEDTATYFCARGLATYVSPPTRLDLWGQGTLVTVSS VL: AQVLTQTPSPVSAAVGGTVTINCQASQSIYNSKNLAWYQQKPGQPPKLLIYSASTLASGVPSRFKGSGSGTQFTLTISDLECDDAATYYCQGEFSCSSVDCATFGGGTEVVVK has Fluorescence Intensity Geomean (normalized to background) reaching or exceeding 6 fold over background?
OUTPUT: NOT MET
